Assay: LD50 (toxicity)
Settings: in vivo
recorded_metric: LD50

Task item: Request the reported LD50 associated with `CCN(CCO)c1ccc(NCCO)c([N+](=O)[O-])c1`
Reply: ~2000 mg/kg
